# Measured On: catalytic domain of human Bub1 (amino acids 704-1085) (Homo sapiens)
# Construct: catalytic domain of human Bub1 (amino acids 704-1085); His6 (N); made in house; host or cells: Hi5 insect cells
# Sequence (O43683 704-1085): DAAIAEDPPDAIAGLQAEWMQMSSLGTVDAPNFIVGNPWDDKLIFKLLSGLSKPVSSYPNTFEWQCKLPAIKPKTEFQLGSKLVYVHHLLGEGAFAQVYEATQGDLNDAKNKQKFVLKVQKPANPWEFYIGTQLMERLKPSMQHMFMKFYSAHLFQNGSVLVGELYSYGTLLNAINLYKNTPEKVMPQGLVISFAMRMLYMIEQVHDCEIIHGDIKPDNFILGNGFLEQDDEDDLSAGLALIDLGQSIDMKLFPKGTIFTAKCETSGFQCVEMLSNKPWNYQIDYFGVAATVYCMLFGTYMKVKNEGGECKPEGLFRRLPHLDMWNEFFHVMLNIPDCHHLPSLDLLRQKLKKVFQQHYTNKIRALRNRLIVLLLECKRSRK
# Measurement Description: Bub1 kinase assay (TR-FRET)
# Type: biochemical
# Recorded Conditions: Biological Assay 1: Bub1 kinase assay median IC50, 10 μM ATP
Measured Metric: IC50
Respond with the figure and its unit, in that order.

Check out these entries, answers already filled in.
COCCOc1cc(F)c(Cn2nc(-c3nc(C)c(F)c(Nc4ccnc(C)n4)n3)c3ccccc32)c(F)c1	180 nM
CCOc1cc(F)c(Cn2nc(-c3ncc(C4CCNCC4)c(Nc4ccncc4)n3)c3ccccc32)c(F)c1 [Example 2-9-3]	5.8 nM
Cc1cc(Nc2nc(-c3nn(Cc4c(F)cc(OCCO)cc4F)c4ccccc34)nc3c2CCC3)ncn1	88 nM

Briefly, IC50 measured for CCOc1cc(F)c(Cn2nc(-c3ncc(CC4CNC4)c(Nc4ccnc(NC(C)=O)c4)n3)c3ccccc32)c(F)c1 : 7.4 nM

* * *

# Measured On: catalytic domain of human Bub1 (amino acids 704-1085) (Homo sapiens)
# Construct: catalytic domain of human Bub1 (amino acids 704-1085); His6 (N); made in house; host or cells: Hi5 insect cells
# Measurement Description: Bub1 kinase assay (TR-FRET)
# Type: biochemical
# Recorded Conditions: 10 μM ATP, read-out: Biological Assay 1: Bub1 kinase assay median IC50
# Experimental: To this end, 100-fold concentrated compound solutions (in DMSO) were previously prepared by serial dilution (1:3.4) of 2 mM stocks in a clear low volume 384-well source microtiter plate (Greiner Bio-One, Frickenhausen, Germany), from which 50 nL of compounds were transferred into a black low volume test microtiter plate from the same supplier. […]
Recorded log10 of IC50 for the following compounds
// units: µM (pre-log); metric: IC50; scale: log10

Observe how each entry below is paired with its result.
CCOc1cc(F)c(Cn2nc(-c3nc4c(c(Nc5ccnc(C(F)F)c5)n3)CCCC4)c3ccccc32)c(F)c1	-1.72
CCOc1cc(F)c(Cn2nc(-c3nc4c(c(Nc5cc(C)ncc5C)n3)CC(C)(C)C4)c3ccccc32)c(F)c1	-1.66
CCOc1cc(F)c(Cn2nc(-c3nc(CN4CCOCC4)cc(Nc4ccnc(NC(C)=O)c4)n3)c3ccccc32)c(F)c1	-2.06

Field log10 of IC50 (catalytic domain of human Bub1 (amino acids 704-1085) (Homo sapiens)), entry CCOc1cc(F)c(Cn2nc(-c3nc4c(c(Nc5ccnc(C)c5)n3)CSC4)c3ccccc32)c(F)c1 : -1.17

Entry CCOc1cc(F)c(Cn2nc(-c3nc(CN4CCCCC4)cc(Nc4ccncc4)n3)c3ccccc32)c(F)c1 , tested on catalytic domain of human Bub1 (amino acids 704-1085) (Homo sapiens), has a reported log10 of IC50 of -2.11

* * *

# Measured On: Bub1 (Homo sapiens, UniProt O43683)
# Sequence (O43683 whole entry): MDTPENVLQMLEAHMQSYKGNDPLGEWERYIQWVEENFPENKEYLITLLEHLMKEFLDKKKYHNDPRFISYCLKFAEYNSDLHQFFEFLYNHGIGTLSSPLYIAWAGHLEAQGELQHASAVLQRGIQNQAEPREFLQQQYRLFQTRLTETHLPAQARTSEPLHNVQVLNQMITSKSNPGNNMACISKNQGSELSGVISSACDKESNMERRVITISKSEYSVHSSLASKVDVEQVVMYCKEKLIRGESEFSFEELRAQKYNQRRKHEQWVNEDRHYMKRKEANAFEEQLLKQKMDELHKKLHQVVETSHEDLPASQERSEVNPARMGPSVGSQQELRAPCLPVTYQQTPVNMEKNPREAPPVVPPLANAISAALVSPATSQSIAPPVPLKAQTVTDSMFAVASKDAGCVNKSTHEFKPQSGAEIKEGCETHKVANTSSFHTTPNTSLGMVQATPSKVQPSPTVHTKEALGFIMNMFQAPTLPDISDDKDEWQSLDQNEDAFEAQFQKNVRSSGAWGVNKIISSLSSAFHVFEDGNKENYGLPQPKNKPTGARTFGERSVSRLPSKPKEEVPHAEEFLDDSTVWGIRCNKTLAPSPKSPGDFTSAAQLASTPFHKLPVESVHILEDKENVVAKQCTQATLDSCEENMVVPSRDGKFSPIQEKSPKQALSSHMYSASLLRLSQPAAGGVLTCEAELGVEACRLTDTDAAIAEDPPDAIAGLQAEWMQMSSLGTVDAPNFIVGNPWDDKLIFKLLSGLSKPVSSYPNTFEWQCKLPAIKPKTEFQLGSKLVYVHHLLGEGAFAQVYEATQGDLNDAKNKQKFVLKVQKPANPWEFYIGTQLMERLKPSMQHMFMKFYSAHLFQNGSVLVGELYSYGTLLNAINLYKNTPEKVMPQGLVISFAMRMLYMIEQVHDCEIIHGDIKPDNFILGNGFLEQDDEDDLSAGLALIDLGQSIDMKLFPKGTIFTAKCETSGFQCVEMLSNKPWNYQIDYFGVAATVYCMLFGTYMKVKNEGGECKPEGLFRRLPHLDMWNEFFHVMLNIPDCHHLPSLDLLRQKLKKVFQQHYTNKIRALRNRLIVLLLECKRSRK
# Measurement Description: Formation-Assay: phosphorylation status of histone 2A by inhibition of kinase activity of Bub1
# Format: cell-based
# Recorded Conditions: Biological Assay 4.1: H2A Formation IC50, co-treatment with Nocodazole 1 μg/ml, 16 h
Measured Metric: pIC50
pIC50 is defined as minus the log10 of a concentration measured in mol/L.

// below: answered compounds
CCOc1cc(F)c(Cn2nc(-c3ncc(C4CCN(CC(F)(F)F)CC4)c(Nc4cc(C)ncc4C)n3)c3ccccc32)c(F)c1	7.09
CCOc1cc(F)c(Cn2nc(-c3nc(CC)cc(Nc4ccncc4)n3)c3ccccc32)c(F)c1	7.96
Cc1nccc(Nc2nc(-c3nn(Cc4c(F)cc(OCCO)cc4F)c4ccccc34)ncc2C2CCN(CC3CC3)CC2)n1	7.92

Now for a further compound.
So for CCOc1cc(F)c(Cn2nc(-c3nc(CN4CCOCC4)cc(Nc4ccncc4OC)n3)c3ccccc32)c(F)c1 , the logged pIC50 turned out to be 5.42
